TARGET OR SYSTEM: human plasma protein factor Xa (Homo sapiens, UniProt P00742)
Construct: measure proteolytic activity of the enzyme (factor Xa); purchased Haematologic Technologies (Essex Junction, Vt.); host or cells: human plasma
Sequence (P00742 235-488 limits assumed): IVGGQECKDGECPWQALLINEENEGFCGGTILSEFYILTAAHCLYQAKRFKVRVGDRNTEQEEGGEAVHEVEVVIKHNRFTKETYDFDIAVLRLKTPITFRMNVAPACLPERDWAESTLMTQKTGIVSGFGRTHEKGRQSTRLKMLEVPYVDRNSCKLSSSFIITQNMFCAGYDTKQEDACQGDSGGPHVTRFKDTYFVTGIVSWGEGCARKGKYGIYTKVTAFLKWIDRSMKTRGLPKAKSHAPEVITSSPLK
Sequence (P00742 41-179 partner limits assumed): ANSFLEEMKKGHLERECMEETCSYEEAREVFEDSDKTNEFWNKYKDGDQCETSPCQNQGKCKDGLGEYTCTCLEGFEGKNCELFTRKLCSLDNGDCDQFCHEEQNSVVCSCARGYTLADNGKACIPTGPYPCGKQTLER
TEST PROTOCOL: Factor Xa IC50 determination (cleavage of chromogenic substrate S-2765)
Format: biochemical
CONDITION DETAILS: fXa 1 nM, S-2765 100 μM, Tris buffered saline pH 7.4, room temperature
METRIC NAME: IC50

Example results:
COMPOUND	TARGET OR SYSTEM	IC50
CN1CCN=C1c1ccc(NC(=O)C(NC(=O)Nc2ccc(Cl)cc2)c2ccccc2OC(F)(F)F)cc1 (stereo not drawn)	human plasma protein factor Xa (Homo sapiens, UniProt P00742)	≤ 100 nM
C=CCC(NC(=O)Nc1ccc(Cl)cc1)C(=O)Nc1ccc(-c2cccc[n+]2[O-])cc1 (stereo not drawn)	human plasma protein factor Xa (Homo sapiens, UniProt P00742)	≤ 100 nM

Read the next record carefully.
## Input Form field: reported IC50 of O=C(Nc1ccc(Cl)cc1)NC(C(=O)N1CCC(N2CCOCC2=O)CC1)c1ccccc1Br (stereo not drawn)
## Output 100 to 500 nM

====

TARGET OR SYSTEM: human plasma protein factor Xa (Homo sapiens)
Construct: measure proteolytic activity of the enzyme (factor Xa)
TEST PROTOCOL: Factor Xa IC50 determination (cleavage of chromogenic substrate S-2765)
CONDITION DETAILS: fXa 1 nM, S-2765 100 μM, Tris buffered saline pH 7.4, room temperature
METRIC NAME: IC50

Below, 3 compounds whose answers are already recorded.
COMPOUND	IC50
N=C(c1ccc(NC(=O)C(NC(=O)Nc2ccc(Cl)cc2)c2ccccc2)cc1)N1CCCC1 (stereo not shown) [Example 29]	≤ 100 nM
O=C(Nc1ccc(Cl)cc1)NC(C(=O)Nc1ccc(-c2cccc[n+]2[O-])cc1)c1ccccc1I (stereo not shown) [Example 115]	≤ 100 nM
CN1CCN=C1c1ccc(NC(=O)C(CC(=O)NCc2ccccc2)NC(=O)Nc2ccc(Cl)cc2)cc1 (stereo not shown) [Example 69]	≥ 500 nM

## Input Entry under review: N=C(c1ccc(NC(=O)C(NC(=O)Nc2ccc(Br)cc2)c2ccccc2F)cc1)N1CCCC1 (stereo not shown) [Example 44] . Reported IC50?
## Output ≤ 100 nM

====

Below, each entry is listed alongside its reported pIC50.
TARGET OR SYSTEM: human plasma protein factor Xa (Homo sapiens)
Construct: measure proteolytic activity of the enzyme (factor Xa)
TEST PROTOCOL: Factor Xa IC50 determination (cleavage of chromogenic substrate S-2765)
CONDITION DETAILS: fXa 1 nM, S-2765 100 μM, Tris buffered saline pH 7.4, room temperature
pIC50: −log10 of the molar value.

Worked examples follow.
COMPOUND	RESULT VALUE
Cc1ccccc1C(NC(=O)Nc1ccc(Cl)cc1)C(=O)Nc1ccc(C(=O)N2CCOC2)cc1 (stereo not drawn)	≥ 7.00
CNC(=N)c1ccc(NC(=O)C(NC(=O)Nc2ccc(Cl)cc2)c2ccccc2)c(F)c1 (stereo not drawn)	≥ 7.00

## Input Need pIC50, item CC(C)N1CCC(NC(=O)C(NC(=O)Nc2ccc(Cl)cc2)c2ccccc2Cl)CC1 (stereo not drawn)
## Output ≤ 6.30
